Where do these numbers come from? They come from the supplement of paper PMC8728848.

- TARGET_OR_SYSTEM: GalNAc3S(b1-4)GlcNAc
- METHOD: glycan array binding signal (z-score within array); higher = stronger binding
- TEST_SETTINGS: glycan notation: IUPAC condensed, linker removed
About 410 targets per protein were measured; listed, in parts, are those with the strongest signals and a random draw of the rest.
ATTRIBUTE_MEASURED: glycan array binding signal (z-score)

Each of the following entries comes with a recorded value; kindly state glycan array binding signal (z-score) for each.
1. AFCNVH (Aspergillus fumigatus) (protein) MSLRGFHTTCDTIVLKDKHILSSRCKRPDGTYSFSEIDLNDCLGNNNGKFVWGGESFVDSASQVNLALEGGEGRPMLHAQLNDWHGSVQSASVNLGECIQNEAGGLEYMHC
2. Epa3 (Candida glabrata), Q6VBI8_CANGB (protein) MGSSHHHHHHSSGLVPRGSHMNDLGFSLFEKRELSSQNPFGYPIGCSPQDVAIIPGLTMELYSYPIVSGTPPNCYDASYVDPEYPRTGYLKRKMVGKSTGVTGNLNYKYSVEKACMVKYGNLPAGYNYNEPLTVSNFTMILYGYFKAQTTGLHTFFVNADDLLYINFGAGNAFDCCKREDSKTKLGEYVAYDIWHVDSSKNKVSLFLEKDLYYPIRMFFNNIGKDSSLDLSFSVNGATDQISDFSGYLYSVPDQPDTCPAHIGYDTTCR

1. 1.43
2. -0.277
